# Target or test system: p300 (Homo sapiens)
# Construct: host or cells: A549 P300 HiBit cells
# Sequence (Q09472 whole entry): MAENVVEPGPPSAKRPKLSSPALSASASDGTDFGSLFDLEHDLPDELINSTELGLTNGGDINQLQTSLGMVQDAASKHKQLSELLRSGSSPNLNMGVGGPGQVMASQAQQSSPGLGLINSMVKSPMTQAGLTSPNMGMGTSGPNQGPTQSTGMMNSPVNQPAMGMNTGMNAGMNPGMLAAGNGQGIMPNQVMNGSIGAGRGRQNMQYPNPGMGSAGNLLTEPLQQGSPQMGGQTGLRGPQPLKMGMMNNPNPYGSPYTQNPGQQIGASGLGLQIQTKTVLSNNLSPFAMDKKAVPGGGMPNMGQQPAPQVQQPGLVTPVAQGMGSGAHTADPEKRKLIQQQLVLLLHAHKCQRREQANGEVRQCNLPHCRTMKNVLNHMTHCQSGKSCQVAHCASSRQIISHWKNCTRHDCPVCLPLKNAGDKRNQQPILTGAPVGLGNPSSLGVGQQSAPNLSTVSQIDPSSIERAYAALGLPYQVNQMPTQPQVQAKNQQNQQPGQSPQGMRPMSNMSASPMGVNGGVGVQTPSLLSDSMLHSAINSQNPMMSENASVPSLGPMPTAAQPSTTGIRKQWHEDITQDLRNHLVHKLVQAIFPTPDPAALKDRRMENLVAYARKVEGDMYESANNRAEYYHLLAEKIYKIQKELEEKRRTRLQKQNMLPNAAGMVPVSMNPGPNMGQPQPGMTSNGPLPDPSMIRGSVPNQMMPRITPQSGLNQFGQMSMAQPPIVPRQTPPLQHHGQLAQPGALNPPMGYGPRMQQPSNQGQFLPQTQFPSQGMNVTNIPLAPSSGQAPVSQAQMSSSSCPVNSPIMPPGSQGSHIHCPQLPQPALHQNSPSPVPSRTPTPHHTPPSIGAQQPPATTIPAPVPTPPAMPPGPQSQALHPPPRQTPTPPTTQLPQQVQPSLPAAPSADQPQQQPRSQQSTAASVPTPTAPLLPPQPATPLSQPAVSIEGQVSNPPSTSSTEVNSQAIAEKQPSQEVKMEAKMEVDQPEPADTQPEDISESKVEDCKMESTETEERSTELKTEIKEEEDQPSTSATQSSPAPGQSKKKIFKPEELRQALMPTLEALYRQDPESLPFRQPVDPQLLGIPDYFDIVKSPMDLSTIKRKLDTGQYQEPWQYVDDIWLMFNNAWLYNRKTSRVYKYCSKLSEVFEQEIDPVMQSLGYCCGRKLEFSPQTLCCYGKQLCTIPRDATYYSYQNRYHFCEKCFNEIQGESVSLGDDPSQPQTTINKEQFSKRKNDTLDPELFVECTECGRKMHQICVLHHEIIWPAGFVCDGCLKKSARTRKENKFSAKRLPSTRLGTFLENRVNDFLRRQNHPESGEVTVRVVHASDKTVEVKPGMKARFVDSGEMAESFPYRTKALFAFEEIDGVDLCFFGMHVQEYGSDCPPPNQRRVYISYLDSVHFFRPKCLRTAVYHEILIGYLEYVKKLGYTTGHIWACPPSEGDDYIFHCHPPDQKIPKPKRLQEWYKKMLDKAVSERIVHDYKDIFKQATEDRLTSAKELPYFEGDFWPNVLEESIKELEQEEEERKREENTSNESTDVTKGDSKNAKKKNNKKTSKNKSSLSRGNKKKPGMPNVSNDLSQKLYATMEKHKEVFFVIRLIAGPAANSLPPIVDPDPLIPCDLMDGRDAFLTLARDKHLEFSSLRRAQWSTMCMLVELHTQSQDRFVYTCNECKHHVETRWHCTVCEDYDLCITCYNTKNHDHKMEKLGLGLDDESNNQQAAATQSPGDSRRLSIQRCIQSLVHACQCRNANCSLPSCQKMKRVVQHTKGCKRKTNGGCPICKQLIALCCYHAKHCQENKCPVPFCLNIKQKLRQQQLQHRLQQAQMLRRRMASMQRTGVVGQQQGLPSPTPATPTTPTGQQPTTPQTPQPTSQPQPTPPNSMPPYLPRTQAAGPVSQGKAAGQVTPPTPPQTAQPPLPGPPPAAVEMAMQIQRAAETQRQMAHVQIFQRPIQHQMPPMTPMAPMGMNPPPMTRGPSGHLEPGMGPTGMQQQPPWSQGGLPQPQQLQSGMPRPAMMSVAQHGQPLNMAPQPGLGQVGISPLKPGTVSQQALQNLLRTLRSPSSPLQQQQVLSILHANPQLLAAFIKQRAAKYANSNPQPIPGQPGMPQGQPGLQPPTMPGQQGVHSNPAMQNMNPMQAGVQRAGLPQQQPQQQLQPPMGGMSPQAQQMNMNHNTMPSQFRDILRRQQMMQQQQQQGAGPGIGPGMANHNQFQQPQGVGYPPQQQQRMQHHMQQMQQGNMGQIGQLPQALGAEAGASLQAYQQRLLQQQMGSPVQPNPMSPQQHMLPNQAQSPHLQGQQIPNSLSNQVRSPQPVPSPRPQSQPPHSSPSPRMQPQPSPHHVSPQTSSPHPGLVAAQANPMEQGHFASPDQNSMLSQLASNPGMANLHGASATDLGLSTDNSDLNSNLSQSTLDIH
# Experiment notes: P300 degradation, HiBit technology in A549 P300 HiBit cells (2 h)
# Assay type: cell-based
# Test settings: A549, A549 P300 HiBit cells, 2 hrs post treatment
Readout kind: Dmax

Check out these entries, answers already filled in.
[[record]]
compound = "Cc1cc2c(-c3cccc4cc(-c5ccc(C(=O)NCC#Cc6ccc7occ(C8CCC(=O)NC8=O)c7c6)nc5)ncc34)nc(N3CCOCC3)cc2n(C)c1=O (stereo not drawn) [Example B92]"
target_or_test_system = "p300 (Homo sapiens)"
readout_value = "> 80%"

[[record]]
compound = "CC(C)c1cc(-c2cccc3cc(-c4ccc(C(=O)NCC#Cc5nc6c(C7CCC(=O)NC7=O)cccc6n5C)nc4)ncc23)cc2c1n(C)c(=O)n2C (stereo not drawn) [Example A186]"
target_or_test_system = "p300 (Homo sapiens)"
readout_value = "< 20%"

[[record]]
compound = "Cn1c(=O)n(C)c2cc(C3=CC(C)(C)Oc4cc(-c5ccc(C(=O)NCC#Cc6ccc7occ(C8CCC(=O)NC8=O)c7c6)nc5)ncc43)ccc21 (stereo not drawn) [Example A263]"
target_or_test_system = "p300 (Homo sapiens)"
readout_value = "> 80%"


Determine from records and report Dmax for Cc1cc(-c2cc3cccc(-c4cc5c(c(N6CCOCC6)n4)n(C)c(=O)n5C)c3cn2)cnc1C(=O)NCC#Cc1ccc2occ(C3CCC(=O)NC3=O)c2c1 (stereo not drawn) [Example A150] > 80%

Determine from records and report Dmax for COc1cc(-c2ncc3c(n2)CCCN3c2cccc3c2cc(C)c(=O)n3C)cnc1C(=O)NCC#Cc1ccc2occ(C3CCC(=O)NC3=O)c2c1 (stereo not drawn) [Example B50] > 80%

Determine from records and report Dmax for CC(C)c1cc(N2CCOc3cc(-c4ccc(C(=O)NCC#Cc5ccc6occ(C7CCC(=O)NC7=O)c6c5)nc4)ncc32)cc2c1n(C)c(=O)n2C (stereo not drawn) [Example A58] > 80%
